This section presents compounds with their documented pKi values.
target: UniProt:Q9P2K8; test: GCN2 enzyme inhibition assay (Transcreener ADP2 fluorescence polarization); assay type: biochemical; settings: Enzyme activity for compounds of Formula IV; Ki(app), 280 μM ATP, 25° C.
Sequence (Q9P2K8 whole entry): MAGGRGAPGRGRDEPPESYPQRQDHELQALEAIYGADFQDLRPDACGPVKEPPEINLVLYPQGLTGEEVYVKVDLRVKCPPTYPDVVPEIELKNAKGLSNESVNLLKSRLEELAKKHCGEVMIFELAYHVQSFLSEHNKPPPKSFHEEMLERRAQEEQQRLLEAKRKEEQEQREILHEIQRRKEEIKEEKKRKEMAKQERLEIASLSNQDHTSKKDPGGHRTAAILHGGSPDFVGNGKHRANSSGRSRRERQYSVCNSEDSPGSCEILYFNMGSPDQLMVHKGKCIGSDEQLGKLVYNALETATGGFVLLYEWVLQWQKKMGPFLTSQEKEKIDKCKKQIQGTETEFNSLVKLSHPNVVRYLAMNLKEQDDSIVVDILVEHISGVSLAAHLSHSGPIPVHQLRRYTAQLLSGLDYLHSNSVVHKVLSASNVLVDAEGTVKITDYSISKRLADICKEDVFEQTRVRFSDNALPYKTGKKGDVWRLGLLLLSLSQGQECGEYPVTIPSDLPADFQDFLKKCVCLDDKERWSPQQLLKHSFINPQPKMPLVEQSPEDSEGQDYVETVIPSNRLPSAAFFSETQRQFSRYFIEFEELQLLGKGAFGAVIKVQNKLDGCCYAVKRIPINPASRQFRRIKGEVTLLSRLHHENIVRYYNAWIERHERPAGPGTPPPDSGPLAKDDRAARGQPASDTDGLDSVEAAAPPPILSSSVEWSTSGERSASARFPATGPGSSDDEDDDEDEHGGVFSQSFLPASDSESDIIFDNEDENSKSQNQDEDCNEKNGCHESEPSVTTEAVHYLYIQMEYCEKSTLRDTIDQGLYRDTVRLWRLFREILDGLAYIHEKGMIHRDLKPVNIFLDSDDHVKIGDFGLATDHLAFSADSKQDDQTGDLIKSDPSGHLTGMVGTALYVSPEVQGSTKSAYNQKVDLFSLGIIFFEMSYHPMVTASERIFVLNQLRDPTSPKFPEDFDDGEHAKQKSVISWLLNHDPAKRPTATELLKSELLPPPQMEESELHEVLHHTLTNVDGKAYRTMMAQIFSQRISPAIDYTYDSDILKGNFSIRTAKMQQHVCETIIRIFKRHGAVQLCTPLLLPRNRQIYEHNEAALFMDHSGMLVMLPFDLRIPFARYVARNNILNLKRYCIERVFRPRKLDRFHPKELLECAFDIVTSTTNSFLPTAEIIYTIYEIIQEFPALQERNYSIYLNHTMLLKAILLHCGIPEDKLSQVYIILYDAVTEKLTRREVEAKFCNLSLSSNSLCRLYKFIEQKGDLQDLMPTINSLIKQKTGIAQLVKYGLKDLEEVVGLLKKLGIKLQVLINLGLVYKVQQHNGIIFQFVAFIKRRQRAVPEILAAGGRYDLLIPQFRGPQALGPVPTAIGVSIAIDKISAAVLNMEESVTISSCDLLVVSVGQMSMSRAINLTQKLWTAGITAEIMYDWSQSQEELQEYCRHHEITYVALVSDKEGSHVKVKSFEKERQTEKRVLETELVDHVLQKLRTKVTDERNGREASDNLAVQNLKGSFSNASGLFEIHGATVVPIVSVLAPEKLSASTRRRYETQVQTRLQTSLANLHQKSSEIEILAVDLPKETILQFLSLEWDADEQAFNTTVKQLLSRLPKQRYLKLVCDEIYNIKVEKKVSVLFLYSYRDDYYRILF
pKi: −log10 of the molar value.

> print(dat)
                                   compound        result
1  CC1NC(c2cn[nH]c2)C(C)N(c2ccnc(-c3cnc4cnc(C(F)(F)F)cn34)n2)C1C (single isomer, unassigned) [IV-337]        > 8.00
2  CP(C)(=O)C1CC(c2cn[nH]c2)CN(c2ccnc(-c3cnc4cnc(C(F)(F)F)cn34)n2)C1 (single isomer, unassigned) [IV-592]        > 8.00
3  N#CC1CCN(c2ccnc(-c3cnc4cnc(C(N)=O)cn34)n2)CC1  7.00 to 8.00
4  CS(=O)(=O)NC[C@H]1CCCN(c2ccnc(-c3cnc4cnc(C(F)F)cn34)n2)C1  6.00 to 7.00
5  CC(=O)N1CCN(c2ccnc(-c3cnc4cnc(-c5ccccc5C#N)cn34)n2)CC1  6.00 to 7.00
6  CC1CN(c2ccnc(-c3cnc4cnc(C(F)(F)F)cn34)n2)CC1N1CCOCC1 (centres unmarked)  6.00 to 7.00

Data point: CC1CN(c2cc(N=S(C)(C)=O)nc(-c3cnc4cnc(C(F)(F)F)cn34)n2)C(C)C(c2cn[nH]c2)N1 (centres unmarked) ; pKi = > 8.00

Data point: "O=S1(=O)CCN(c2ccnc(-c3cnc4cnc(C(F)F)cn34)n2)CC1" ; pKi = 6.00 to 7.00

Data point: CC1CN(c2ccnc(-c3cnc4cnc(C(F)(F)F)cn34)n2)C(C)C(c2cn[nH]c2)N1 (centres unmarked) [IV-222] ; pKi = > 8.00

Data point: NS(=O)(=O)C1CCCN(c2ccnc(-c3cnc4cnc(C(F)(F)F)cn34)n2)C1 (centres unmarked) ; pKi = 6.00 to 7.00

Data point: FC(F)(F)c1cn2c(-c3nccc(N4CCCC(c5cncs5)C4)n3)cnc2cn1 (centres unmarked) ; pKi = 7.00 to 8.00

Data point: FC(F)(F)c1cn2c(-c3nccc(N4CCCC(n5cccn5)C4)n3)cnc2cn1 (centres unmarked) ; pKi = 6.00 to 7.00

Data point: "NC(=O)c1cn2c(-c3nccc(N4CCC(CO)CC4)n3)cnc2cn1" ; pKi = 7.00 to 8.00

Data point: "FC(F)(F)c1cn2c(-c3nccc(N4CCc5sccc5C4)n3)cnc2cn1" ; pKi = < 6.00

Data point: CS(=O)(=O)CC1CCCN(c2ccnc(-c3cnc4cnc(C(F)(F)F)cn34)n2)C1 (centres unmarked) ; pKi = 6.00 to 7.00

Data point: C[C@H]1CN(c2ccnc(-c3cnc4cnc(C(F)(F)F)cn34)n2)C[C@@H](c2c[nH]cn2)O1 (racemic) ; pKi = > 8.00

Data point: Brc1cn2c(-c3nccc(N4CCCC(c5cn[nH]c5)C4)n3)cnc2cn1 (centres unmarked) [IV-346] ; pKi = > 8.00
